Test system: Mythimna separata
Assay: Insecticidal activity against Mythimna separata (Oriental armyworm) in wheat leaves assessed as mortality rate at 1 mg/mL at 25 degC measured after 10 days by leaf-dipping method relative to control
Format: functional
Settings: 240 h
Provide the reported mortality at 1000 µg/mL of each item.
Only the number, expressed in %, is required.

What value of mortality at 1000 µg/mL has been reported for the following compound? C[C@@]12CCCC(COC(=O)c3cccc([N+](=O)[O-])c3)=C1C(=O)O[C@H]2c1ccoc1
24.1

Which mortality at 1000 µg/mL value belongs to CC1=C2C(=O)O[C@@H](c3ccoc3)[C@]2(C)CC[C@H]1O [4ALPHA-HYDROXYFRAXINELLONE] ?
20.7

Record request: mortality at 1000 µg/mL value, item C[C@@]12CCCC(COC(=O)c3ccc(Cl)cc3)=C1C(=O)O[C@H]2c1ccoc1
6.9

GET /values?readout=mortality at 1000 µg/mL&item= COc1cccc2ccc(C(=O)O[C@@H]3CC[C@]4(C)C(=C3C)C(=O)O[C@H]4c3ccoc3)nc12
20.7

====

System: Mythimna separata
Test: Insecticidal activity against Mythimna separata (Oriental armyworm) in wheat leaves assessed as mortality rate at 1 mg/mL at 25 degC measured after 10 days by leaf-dipping method relative to control
Format: functional
Settings: 240 h
measured.quantity: mortality at 1000 µg/mL (%)
Numeric answer only, unit % assumed.

Look at this compound and give its reported mortality at 1000 µg/mL. CC1=C2C(=O)O[C@@H](c3ccoc3)[C@]2(C)CC[C@H]1OC(=O)c1ccc(F)cc1
24.1

Need mortality at 1000 µg/mL of C[C@@]12CCCC(COC(=O)c3ccc([N+](=O)[O-])cc3)=C1C(=O)O[C@H]2c1ccoc1 , thanks.
13.8

Suppose we examine the compound CC1=C2C(=O)O[C@@H](c3ccoc3)[C@]2(C)CC[C@H]1OC(=O)c1ccc(C)cc1 ; what mortality at 1000 µg/mL value has been reported?
24.1

// mortality at 1000 µg/mL lookup, key: CCCCCCCCCCC(=O)O[C@@H]1CC[C@]2(C)C(=C1C)C(=O)O[C@H]2c1ccoc1
20.7

# input compound: C[C@@]12CCCC(COC(=O)c3cccnc3)=C1C(=O)O[C@H]2c1ccoc1 ; wanted: its mortality at 1000 µg/mL
27.6

# input compound: C[C@@]12CCCC(COC(=O)Cc3ccccc3)=C1C(=O)O[C@H]2c1ccoc1 ; wanted: its mortality at 1000 µg/mL
27.6

Suppose we examine the compound C[C@@]12CCCC(COC(=O)c3ccccc3)=C1C(=O)O[C@H]2c1ccoc1 ; what mortality at 1000 µg/mL value has been reported?
17.2

Given C[C@@]12CCCC(COC(=O)c3ccc(C#N)cc3)=C1C(=O)O[C@H]2c1ccoc1 , state its recorded mortality at 1000 µg/mL.
6.9

// mortality at 1000 µg/mL lookup, key: CCCCCCCC(=O)O[C@@H]1CC[C@]2(C)C(=C1C)C(=O)O[C@H]2c1ccoc1
10.3

So what's the measured mortality at 1000 µg/mL for this one? CC1=C2C(=O)O[C@@H](c3ccoc3)[C@]2(C)CC[C@H]1OC(=O)c1cccc(F)c1
24.1

I'd like to know its mortality at 1000 µg/mL. The compound in question is CCCCCCCC(=O)OCC1=C2C(=O)O[C@@H](c3ccoc3)[C@]2(C)CCC1
6.9

Form field: reported mortality at 1000 µg/mL of CC1=C2C(=O)O[C@@H](c3ccoc3)[C@]2(C)CC[C@H]1OC(=O)c1cccc(Br)c1
20.7
